system-name: T1, human IL-12 (human, UniProt P29460 23-328; P29459 23-219)
T1 construct: Recombinant (Peprotech); FLAG-tagged IL-12 in the flow cytometry assays, biotinylated in the IL-12Rβ2 assay; also called hIL-12
T1 sequence 1: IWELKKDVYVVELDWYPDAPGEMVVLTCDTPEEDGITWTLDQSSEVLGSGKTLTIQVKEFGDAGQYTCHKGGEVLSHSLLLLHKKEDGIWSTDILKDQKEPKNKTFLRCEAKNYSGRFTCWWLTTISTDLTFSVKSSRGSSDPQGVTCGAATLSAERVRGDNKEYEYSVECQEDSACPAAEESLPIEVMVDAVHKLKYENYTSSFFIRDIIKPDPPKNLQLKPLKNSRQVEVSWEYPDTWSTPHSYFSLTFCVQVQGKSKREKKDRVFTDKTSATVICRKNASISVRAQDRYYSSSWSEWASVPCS
T1 sequence 2: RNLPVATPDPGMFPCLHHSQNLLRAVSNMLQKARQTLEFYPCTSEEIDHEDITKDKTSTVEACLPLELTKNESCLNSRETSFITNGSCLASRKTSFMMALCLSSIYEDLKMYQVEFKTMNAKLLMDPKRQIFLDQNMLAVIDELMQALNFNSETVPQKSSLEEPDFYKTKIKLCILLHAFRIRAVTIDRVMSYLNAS
assay: ELISA, coated IL-12

binder: Antibody 145 (antibody, human IgG1, kappa, V domains shown) VH: EVQLVQSGAEVKKPGATVKISCKASGYTFSDYYLHWVRQAPEKGLEWMGWIDPENGDTEYAPKFQGRVTITADTSTDTGYLELSSLRSEDTAVYYCAANKELRYFDVWGQGTLVTVSS VL: DIQMTQSPSSVSASVGDRVTITCRASQSISINLHWYQQKPGKSPKLLIYFASQSISGVPSRFSGSGSGTDFSLTINSLQPEDFARYYCQQSNSFPLTFGGGTKVEIKR
binding result: binds
--
binder: Antibody 147 (antibody, human IgG1, kappa, V domains shown) VH: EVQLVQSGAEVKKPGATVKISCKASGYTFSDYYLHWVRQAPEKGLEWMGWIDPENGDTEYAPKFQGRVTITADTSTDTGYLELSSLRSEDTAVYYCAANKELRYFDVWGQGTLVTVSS VL: DIQMTQSPSSVSASVGDRVTITCRASQSISINLHWYQQKPGKAPKLLIYFASQSISGVPSRFSGSGSGTDFSLTINSLQTEDFARYYCQQSNSFPLTFGGGTKVEIKR
binding result: binds
--
binder: Antibody 146 (antibody, human IgG1, kappa, V domains shown) VH: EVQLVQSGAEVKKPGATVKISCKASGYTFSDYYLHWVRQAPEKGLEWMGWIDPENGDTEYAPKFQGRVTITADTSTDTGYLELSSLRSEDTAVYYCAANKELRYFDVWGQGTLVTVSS VL: DIQMTQSPSSVSASVGDRVTITCRASQSISINLHWYQQKPGKAPKLLIYFASQSISGIPSRFSGSGSGTDFSLTINSLQPEDFARYYCQQSNSFPLTFGGGTKVEIKR
binding result: binds
